- Tested on: SNB-19
- Assay comment: Cytotoxicity effect against human SNB-19 cells assessed as cell growth inhibition incubated for 48 hrs by trypan blue exclusion assay
- Type: functional, cell-based
- Assay setup: SNB-19, 48 h
Measurement label: IC50

| Compound | System tested | Measurement label | Value reported |
| --- | --- | --- | --- |
| Cn1nnc2c(C(N)=O)ncn2c1=O [TEMOZOLOMIDE] | SNB-19 | IC50 | 69.9 µM |
| O=C(Nc1ccccc1)Oc1cc(OC(=O)Nc2ccccc2)c2c(c1)N(C(c1ccc(F)cc1)c1cccc(Cl)c1O)CC2 (configuration not stated) | SNB-19 | IC50 | 85.5 µM |

====

- Assay comment: Cytotoxicity against mouse MEF cells assessed as cell growth inhibition at 100 uM incubated for 48 hrs by trypan blue exclusion assay
- Type: cell-based
Measurement label: inhibition at 48 h, 100 µM

| Molecule | Measurement label | Value reported |
| --- | --- | --- |
| O=C(Nc1ccccc1)Oc1cc(OC(=O)Nc2ccccc2)c2c(c1)N(C(c1ccc(F)cc1)c1cccc(Cl)c1O)CC2 (stereo unspecified) | inhibition at 48 h, 100 µM | < 5% |

====

- System tested: Uracil nucleotide/cysteinyl leukotriene receptor (Homo sapiens, UniProt Q13304)
- Sequence (Q13304 whole entry): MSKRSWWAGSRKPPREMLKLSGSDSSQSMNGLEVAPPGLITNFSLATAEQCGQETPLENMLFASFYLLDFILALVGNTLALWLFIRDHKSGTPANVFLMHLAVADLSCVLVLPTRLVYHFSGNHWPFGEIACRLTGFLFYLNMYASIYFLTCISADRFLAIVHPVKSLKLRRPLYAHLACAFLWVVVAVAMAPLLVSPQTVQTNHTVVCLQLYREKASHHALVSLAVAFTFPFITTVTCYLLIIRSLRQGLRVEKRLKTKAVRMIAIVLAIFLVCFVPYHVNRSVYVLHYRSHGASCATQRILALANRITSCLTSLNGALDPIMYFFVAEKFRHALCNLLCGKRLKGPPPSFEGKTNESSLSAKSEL
- Assay comment: Agonist activity at human GPR17 in human SNB-19 cells assessed as decrease in calcium ion levels incubated for 2 hrs by Calcium Fura 2 Dynamic assay
Let's look at some compounds and their measured EC50.

| Compound | EC50 [µM] |
| --- | --- |
| O=C(O)CCC1=C(C(=O)O)Cc2cc(Cl)cc(Cl)c21 | 26.3 |
| O=C(Nc1ccccc1)Oc1cc(OC(=O)Nc2ccccc2)c2c(c1)N(C(c1ccc(F)cc1)c1cccc(Cl)c1O)CC2 (configuration not stated) | 7.67 |

====

- System tested: Uracil nucleotide/cysteinyl leukotriene receptor (Homo sapiens)
- Assay comment: Agonist activity at human GPR17 in human LN-229 cells assessed as decrease in calcium ion levels incubated for 2 hrs by Calcium Fura 2 Dynamic assay
Quick list: EC50 per entry.

| Compound | EC50 / µM |
| --- | --- |
| O=C(O)CCC1=C(C(=O)O)Cc2cc(Cl)cc(Cl)c21 | 26.9 |
| O=C(Nc1ccccc1)Oc1cc(OC(=O)Nc2ccccc2)c2c(c1)N(C(c1ccc(F)cc1)c1cccc(Cl)c1O)CC2 (configuration not stated) | 41.9 |

====

- System tested: Uracil nucleotide/cysteinyl leukotriene receptor (Homo sapiens)
- Assay comment: Inverse agonist at human GPR17 in human SNB-19 cells assessed as intracellular cAMP levels incubated for 2 hrs by cAMP Glo Dynamic assay

| Cpd smiles | System tested | EC50 / µM |
| --- | --- | --- |
| O=C(O)CCC1=C(C(=O)O)Cc2cc(Cl)cc(Cl)c21 | Uracil nucleotide/cysteinyl leukotriene receptor (Homo sapiens) | 17.7 |

Value source: ChEMBL document CHEMBL5030526
